Experiment: Drug level in HCT116 xenografted mouse tumor at 100 mg/kg, ip after 10 hrs
Assay type: ADME, organism-based, Neoplasm
Design: dose 100 mg/kg, route intraperitoneal
Conditions: human, tumor (HCT116 xenograft), read-out: Drug uptake
Readout Name: concentration at 10 h (µM)
Expressed in µM, but write only the number.

Worked set:
O=C(Nc1cc(CN2CCCC2)cc(C(F)(F)F)c1)Nc1ncc(CCNc2ncnc3ccsc23)s1	8.76
O=C(Nc1ccc(Cl)c(Cl)c1)Nc1ncc(CCNc2ncnc3ccsc23)s1	54.8
O=C(Nc1ccc(F)c(Cl)c1)Nc1ncc(CCNc2ncnc3ccsc23)s1	56.1
O=C(Nc1cccc(F)c1)Nc1ncc(CCNc2ncnc3ccsc23)s1	19.8
CS(=O)(=O)O.O=C(Nc1cccc(Cl)c1)Nc1ncc(CCNc2ncnc3ccsc23)s1 [SNS-314 MESYLATE]	31.6

API: the following record is the query input.
Indicate its recorded concentration at 10 h; the molecule in question is `O=C(Nc1ncc(CCNc2ncnc3ccsc23)s1)Nc1cccc2cc[nH]c12` 4.36
